Test system: Wild type
procedure_text: S. aureus survival, RN4220 and DeltatarO strains – OD600, teichoic acid synthesis inhibitors, primary screen (AID 463173)
test_parameters: S. aureus RN4220 wild type/DeltatarO growth, OD600, 18 h, stronger effect = lower value, screened at 18.75 µg/mL (by protocol)
The campaign covered roughly 52,000 compounds. About 1,700 (3.3%) were called active. The full list was thinned out, with actives kept by preference.
survival values for the molecules below.
quantity_kind: survival

- Cc1cccc(N2CCN(Cc3nnc(-c4ccc5c(c4)OCO5)o3)CC2)c1C: 83% (inactive)
- COc1ccc(C)cc1NCc1nnc2n1CCCCC2: -3% (active)
- CCOCCCn1c(SCC(=O)NCCCOC)nc2c(sc3ccccc32)c1=O: 134% (inactive)
- O=C(Nc1ccccc1NC(=O)c1cccs1)c1cccs1: 111% (inactive)
- CCOC(=O)c1cccc(NS(=O)(=O)c2cc(Br)cc3c2N(C(=O)C2CC2)CC3)c1: 151% (inactive)
- CCCCN(C)CCCNC(=O)C1CCN(S(=O)(=O)CCC)CC1: 77% (inactive)
- Fc1ccc(NCc2nnc3n2CCCCC3)cc1Cl: 66% (inactive)
- COc1ccc(CCN2CC(C(=O)NCCc3ccc(C)cc3)CC2=O)cc1OC (stereo not drawn): 60% (inactive)
- CCOc1ccc(CCNC(=O)Cn2c(C)c3cnn(-c4ccccc4)c(=O)c3c2C)cc1: 95% (inactive)
- COCCCNC(=O)CSc1nc2c(sc3ccccc32)c(=O)n1CCc1ccccc1: 64% (inactive)
- COc1ccc(N2CC(NC(=O)/C=C\c3ccccc3)CC2=O)cc1 (stereo not drawn): 101% (inactive)
- COC(=O)c1ccc(NS(=O)(=O)c2c(C)nc3sccn3c2=O)cc1: 85% (inactive)
- O=C(Nc1ccccc1)Nc1nnc(SCC(=O)N2CCCCC2)s1: 131% (inactive)
- CCOC(=O)CSc1ncnc2sc3c(c12)CCC3: 100% (inactive)
- COc1ccc(C2CC(=O)N(Cc3ccc(F)cc3)c3ccccc3S2)cc1 (stereo not drawn): 30% (inactive)
- COc1cc(C2CC(=O)N(Cc3cccc(F)c3)c3ccccc3S2)cc(OC)c1OC (stereo not drawn): 83% (inactive)
- Cn1cc(S(=O)(=O)N2CCCCC2)cc1C(=O)N1CCN(c2ccc(F)cc2)CC1: 65% (inactive)
- CCOCCCn1c(SCC(=O)NCc2ccccc2)nc2c(sc3ccccc32)c1=O: -6% (active)
- CCOc1ccc(NC(=O)/C=C\C(=O)N(c2ccc(C(C)C)cc2)C(C(=O)NCc2ccco2)c2ccc(F)cc2)cc1 (stereo not drawn): 51% (inactive)
- CCOc1ccc(CCNC(=O)C2CCN(Cc3nc(-c4ccccc4C)oc3C)CC2)cc1OCC: 81% (inactive)
- O=C1CC(c2ccccc2)Sc2ccccc2N1Cc1ccc(F)cc1 (stereo not drawn): 16% (active)
- Clc1ncnc2sc3c(c12)CCCC3: 108% (inactive)
- Cc1scc(-c2ccccc2)[n+]1CCO: 109% (inactive)
- Nc1ncnc2sc3c(c12)CCCC3: 109% (inactive)
- CCCSCCCNC(=O)C1CCCN(C(=O)c2cnn(-c3ccccc3)c2-n2cccc2)C1 (stereo not drawn): 107% (inactive)
- CC(=O)c1cccc(NC(=O)CCn2nc(C)c(S(=O)(=O)N3CCCCC3)c2C)c1: 159% (inactive)
- O=C(CSc1nc(-c2ccccc2)cn1-c1ccccc1)Nc1ccccc1: 68% (inactive)
- CN(Cc1ccco1)C(=O)c1ccc2c(c1)N(Cc1ccccc1F)C(=O)c1ccccc1S2: 115% (inactive)
- COc1cc(C2CC(=O)N(Cc3ccc(F)cc3)c3ccccc3S2)cc(OC)c1OC (stereo not drawn): 72% (inactive)
- CC1=C(c2ccc(C)c(C)c2)S(=O)(=O)N=C1N1CCC(C(=O)NCCc2ccc(Cl)cc2)CC1: 132% (inactive)
- CCOC(=O)CSc1nc2c(sc3ccccc32)c(=O)n1CCc1ccccc1: 75% (inactive)
- CCCCn1c(SCc2ccccc2C#N)nc2c(sc3ccccc32)c1=O: 14% (active)
- COc1ccc(S(=O)(=O)N(CC(=O)Nc2ccccc2Br)Cc2ccccc2)cc1: 77% (inactive)
- CCOC(=O)CSc1nc2c(sc3ccccc32)c(=O)n1CCO: -6% (active)
- O=C1CC(c2ccccc2)Sc2ccccc2N1Cc1ccccc1F (stereo not drawn): 96% (inactive)
- CC(C)OCCCNc1ncnc2sc3c(c12)CCCC3: 79% (inactive)
- CCC(Sc1ncnc2sc3c(c12)CCCC3)C(=O)OCC(C)C (stereo not drawn): -3% (active)
- Cc1cccc(N2CCN(C(=O)CCS(=O)(=O)c3ccc4c(c3)CC(=O)N4C)CC2C)c1 (stereo not drawn): -4% (active)

---

Test system: Wild type
procedure_text: S. aureus survival, RN4220 and DeltatarO strains – OD600, teichoic acid synthesis inhibitors, primary screen (AID 463173)
test_parameters: S. aureus RN4220 wild type/DeltatarO growth, OD600, 18 h, stronger effect = lower value, screened at 18.75 µg/mL (by protocol)
Among all 52,000 compounds or so, about 1,700 (3.3%) were called active. The sample holds actives, similar compounds and a random draw of the others, so the mix is not that of the screen.
quantity_kind: survival (%)

- CCOc1ccc(N2CC(c3nc4ccccc4n3CCOc3ccc(CC)cc3)CC2=O)cc1 (stereo not given): 79
- CC(C)N(Cc1ccccc1)C(=O)Cn1ncc2c3ccccc3n(Cc3ccccc3)c2c1=O: 96
- COc1ccc(OCCn2c(C3CC(=O)N(c4ccc(F)cc4)C3)nc3ccccc32)cc1 (stereo not given): 84
- Cc1ccc(CN2CCCn3nc(C(=O)NCCc4ccccc4C)cc3C2=O)cc1: 79
- Cc1cc(OCCn2c(C3CC(=O)N(Cc4ccc(F)cc4)C3)nc3ccccc32)ccc1Cl (stereo not given): -15

---

System: Wild type
procedure_text: S. aureus survival, RN4220 and DeltatarO strains – OD600, teichoic acid synthesis inhibitors, primary screen (AID 463173)
test_parameters: S. aureus RN4220 wild type/DeltatarO growth, OD600, 18 h, stronger effect = lower value, screened at 18.75 µg/mL (by protocol)
The whole screen tested about 52,000 compounds, of which about 1,700 (3.3%) were called active. The entries come from a sample that favours actives as a whole.
quantity_kind: survival (%)

* COc1ccc(-c2noc(CN(C(=O)c3ccccc3Cl)C(C)C)n2)cc1 | 97
* CCCCN1CC(c2nc3ccccc3n2CCCCOc2cccc(C)c2C)CC1=O (configuration not stated) | -13
* Cc1ccccc1OCCCCn1c(C2CC(=O)N(c3ccccc3Cl)C2)nc2ccccc21 (configuration not stated) | 59
* Cc1ccc(C(=O)N(c2ccc(C)cc2)S(=O)(=O)c2ccc(Cl)cc2)cc1 | 73
* CCCCN1CC(c2nc3ccccc3n2CCCCOc2c(C)cccc2C)CC1=O (configuration not stated) | 61
* Cc1cc(NS(=O)(=O)c2ccc3nc(-c4ccccc4)[nH]c3c2)ccc1Br | -4
* Cc1ccc2nc(Cl)c3cc(C(=O)NC4CCC(C)CC4)sc3c2c1 (configuration not stated) | 72
* CC(C)Cn1c(-c2ccccc2Cl)nc2ccccc21 | 26
* COc1ccc(-c2noc(CN(C(=O)c3cc(OC)c(OC)cc3OC)C(C)C)n2)cc1 | 86
* CCCn1c(-c2cccc(Br)c2)nc2ccccc21 | 3
* CC(C)N(Cc1nc(-c2ccc(Cl)cc2)no1)C(=O)c1ccco1 | 76
* CCCOc1cccc(NC(=O)c2c(-c3ccccc3Cl)noc2C)c1 | 71
* Cc1ccc2nc(Cl)c3cc(C(=O)N4CCCC(C)C4)sc3c2c1 (configuration not stated) | -2
* CC(C)c1ccc(NC(=O)c2cccc3c2C(=O)N(C2CCCCC2)C3)cc1 | 1
* Cc1ccc(F)cc1NC(=O)CCc1c(C)nn(-c2ccc(N3CCOCC3)nn2)c1C | 113
* Cc1ccc(-c2noc(CNC(=O)COc3cc(C)c(Br)c(C)c3)n2)cc1 | 89
* Cc1ccc(CC(=O)N(Cc2nc(-c3ccc(C)cc3)no2)C(C)C)cc1 | -1
* CC(C)Cn1c(C2CC(=O)N(c3ccccc3Cl)C2)nc2ccccc21 (configuration not stated) | 97
* CC(C)Nc1nc2c(-c3cccc(Br)c3)nnn2c2ccccc12 | 74
* CC(C)Cn1c(-c2cccc(Br)c2)nc2ccccc21 | 27
* CC(C)c1ccc(NS(=O)(=O)c2ccc3nc(-c4ccccc4)[nH]c3c2)cc1 | 63
* Cc1cccc(NS(=O)(=O)c2ccc3nc(-c4ccccc4)[nH]c3c2)c1C | 129
* CC(=O)NC(C)c1nc2ccccc2n1Cc1ccccc1Cl (configuration not stated) | 91
* O=C(NC1CCCCC1)c1cc2c(Cl)nc3ccccc3c2s1 | 77
* Cc1ccc(-c2noc(CN(C(=O)COc3cc(C)cc(C)c3C)C(C)C)n2)cc1 | 1
* CC1CCCN(C(=O)c2cc3c(Cl)nc4ccccc4c3s2)C1 (configuration not stated) | -2
* Cc1ccc(NS(=O)(=O)c2ccc3nc(-c4ccccc4)[nH]c3c2)c(Br)c1 | 63
* Cc1ccc2nc(Cl)c3cc(C(=O)N4CCCCC4C)sc3c2c1 (configuration not stated) | 21
* Cc1ccc(NS(=O)(=O)c2ccc3nc(-c4ccccc4)[nH]c3c2)c(Cl)c1 | 60
* CCCCN1CC(c2nc3ccccc3n2CCCCOc2ccccc2C)CC1=O (configuration not stated) | 15
* CC(Oc1ccccc1)C(=O)Nc1c(C(=O)Nc2cccc(F)c2)oc2ccccc12 (configuration not stated) | 57
* COc1ccc(NS(=O)(=O)c2ccc3nc(-c4ccccc4)[nH]c3c2)cc1 | 81
* Cc1cccc(OCC(=O)N(Cc2cccs2)c2ccc(Cl)cc2)c1C | 79
* Cc1ccc2nc(Cl)c3cc(C(=O)N4CCCCC4)sc3c2c1 | -2
* Cc1cccc(-c2nc3scc(CCNC(=O)c4ccc(Br)o4)n3n2)c1 | 74
* O=C(NC1CCCCCC1)c1cc2c(Cl)nc3ccccc3c2s1 | 123
* O=S(=O)(Nc1ccc(Br)cc1)c1ccc2nc(-c3ccccc3)[nH]c2c1 | -3
* COc1ccc(S(=O)(=O)N(CCc2ccccc2)CC(=O)NCc2ccc(C)cc2)cc1 | 67
* COc1ccc(N(Cc2cccs2)C(=O)COc2cccc(C)c2C)cc1 | 12
* COc1ccc(-c2noc(CN(C(C)C)S(=O)(=O)c3ccc(Br)cc3)n2)cc1 | 81
* CCCCNc1nc2c(-c3cccc(Br)c3)nnn2c2ccccc12 | 92
* Cc1ccc2nc(Cl)c3cc(C(=O)NC4CCCCCC4)sc3c2c1 | 119

// data source = PubChem BioAssay AID463173
